Just for reference, patent US20030215462A1 is where these values come from.

- Tested on: UGT enzymes of pooled human jejunum microsomes
- measurement-notes: Inhibition of 2ME2 glucuronidation (MG1) in pooled human jejunum microsomes
- Assay type: biochemical
- applied-conditions: jejunum HJ61; 2ME2 50 μM; inhibitor 100 μM
Documented residual metabolism (% of control), 2ME2 MG1 across a set of molecules
experimental-endpoint: residual metabolism (% of control), 2ME2 MG1

{"molecule": "O=C(c1ccc(OCCN2CCCCC2)cc1)c1c(-c2ccc(O)cc2)sc2cc(O)ccc12 [Raloxifene, raloxifene, reference compound]", "observed-value": "12 (0) %"}
{"molecule": "O=C(O[C@@H]1Cc2c(O)cc(O)cc2O[C@H]1c1cc(O)c(O)c(O)c1)c1cc(O)c(O)c(O)c1 [Gallocatechin gallate]", "observed-value": "9 (1) %"}
{"molecule": "O=C(O[C@@H]1Cc2c(O)cc(O)cc2O[C@@H]1c1cc(O)c(O)c(O)c1)c1cc(O)c(O)c(O)c1 [Epigallocatechin gallate]", "observed-value": "35 (2) %"}
{"molecule": "CCCCCCCCOC(=O)c1cc(O)c(O)c(O)c1 [Octyl gallate]", "observed-value": "58 (3) %"}

* * *

- System: UGT enzymes of human liver microsomes
- measurement-notes: Inhibition of raloxifene glucuronidation (G1, G2) in human liver microsomes
- Assay type: biochemical
experimental-endpoint: % of control metabolism (SD, n = 3), raloxifene glucuronide G1

{"compound": "CC(C)[C@@H]1CC[C@@H](C)C[C@H]1O[C@@H]1O[C@H](C(=O)O)[C@@H](O)[C@H](O)[C@H]1O [Menthol glucuronide]", "observed-value": "91 (2) %"}
{"compound": "Cc1cn([C@H]2C[C@H](N=[N+]=[N-])[C@@H](CO)O2)c(=O)[nH]c1=O [Zidovudine, zidovudine, reference compound]", "observed-value": "93 (3) %"}
{"compound": "CC(C)[C@@H]1CC[C@@H](C)C[C@H]1O", "observed-value": "108 (4) %"}
{"compound": "COc1ccc2cc([C@H](C)C(=O)O)ccc2c1 [Naproxen Free Acid]", "observed-value": "81 (3) %"}
{"compound": "CCCCNC(=O)NS(=O)(=O)c1ccc(C)cc1 [Tolbutamide]", "observed-value": "98 (7) %"}

* * *

- System: UGT enzymes of human liver microsomes
- measurement-notes: Inhibition of raloxifene glucuronidation (G1, G2) in human liver microsomes
- Type: biochemical
- applied-conditions: G1; inhibitor 50 μM; raloxifene 50 μM, human liver microsomes 250 μg/ml, 15 min
experimental-endpoint: % of control metabolism (SD, n = 3), raloxifene glucuronide G1

{"compound": "O=C(O)Cc1ccccc1Nc1c(Cl)cccc1Cl [Diclofenac, reference compound]", "observed-value": "65 (1) %"}
{"compound": "CC/C(=C(/CC)c1ccc(O)cc1)c1ccc(O)cc1 [Diethylstilbestrol, reference compound]", "observed-value": "14 (1) %"}
{"compound": "O=C(O[C@@H]1Cc2c(O)cc(O)cc2O[C@@H]1c1cc(O)c(O)c(O)c1)c1cc(O)c(O)c(O)c1 [Epigallocatechin gallate]", "observed-value": "46 (2) %"}
{"compound": "O=c1c(O)c(-c2ccc(O)c(O)c2)oc2cc(O)cc(O)c12", "observed-value": "8 (1) %"}

* * *

- System: UGT enzymes of human liver microsomes
- Construct: percentage of control metabolism, 7-HFC glucuronidation; percentage of control metabolism, 7-HFC glucuronidation
- measurement-notes: Kinetic and Ki studies of inhibitors of 7-HFC glucuronidation in human liver microsomes
- Type: biochemical
- applied-conditions: read-out: Km of 7-HFC glucuronidation (fit of the experiment with this inhibitor); 7-HFC 20-500 μM

{"compound": "CC/C(=C(/CC)c1ccc(O)cc1)c1ccc(O)cc1 [Diethylstilbestrol, reference compound]", "Km (µM)": 87}
{"compound": "O=C(O)c1cc(-c2ccc(F)cc2F)ccc1O [Diflunisal, reference compound]", "Km (µM)": 92}
{"compound": "O=C(O[C@@H]1Cc2c(O)cc(O)cc2O[C@@H]1c1cc(O)c(O)c(O)c1)c1cc(O)c(O)c(O)c1 [Epigallocatechin gallate]", "Km (µM)": 75}
{"compound": "CCCCCCCCOC(=O)c1cc(O)c(O)c(O)c1 [Octyl gallate]", "Km (µM)": 81}
{"compound": "O=C(O[C@@H]1Cc2c(O)cc(O)cc2O[C@H]1c1cc(O)c(O)c(O)c1)c1cc(O)c(O)c(O)c1 [Gallocatechin gallate]", "Km (µM)": 75}
{"compound": "O=C(OC[C@H]1O[C@@H](OC(=O)c2cc(O)c(O)c(OC(=O)c3cc(O)c(O)c(O)c3)c2)[C@H](OC(=O)c2cc(O)c(O)c(OC(=O)c3cc(O)c(O)c(O)c3)c2)[C@@H](OC(=O)c2cc(O)c(O)c(OC(=O)c3cc(O)c(O)c(O)c3)c2)[C@@H]1OC(=O)c1cc(O)c(O)c(OC(=O)c2cc(O)c(O)c(O)c2)c1)c1cc(O)c(O)c(OC(=O)c2cc(O)c(O)c(O)c2)c1 [Tannic acid]", "Km (µM)": 85}
{"compound": "O=C(O)Cc1ccccc1Nc1c(Cl)cccc1Cl [Diclofenac, reference compound]", "Km (µM)": 87}
